# experiment notes: self-splicing fitness, log relative to wild type (ln ratio); higher = more splicing; Tetrahymena group I intron in knt gene, E. coli kanamycin selection, DiMSum; sequences stand for … in CUCUCU…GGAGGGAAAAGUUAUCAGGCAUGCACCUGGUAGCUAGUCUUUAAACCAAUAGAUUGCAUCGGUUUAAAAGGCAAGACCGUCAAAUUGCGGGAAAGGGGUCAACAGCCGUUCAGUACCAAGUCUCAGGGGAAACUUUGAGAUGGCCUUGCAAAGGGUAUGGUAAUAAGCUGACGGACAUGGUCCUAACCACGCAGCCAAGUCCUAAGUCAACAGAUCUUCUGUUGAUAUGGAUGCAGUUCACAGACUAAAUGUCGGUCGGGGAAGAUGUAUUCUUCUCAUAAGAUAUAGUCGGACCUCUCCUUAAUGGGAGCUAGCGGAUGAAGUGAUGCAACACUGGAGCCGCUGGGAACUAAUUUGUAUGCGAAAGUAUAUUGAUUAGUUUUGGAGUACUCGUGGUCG;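 also: selection with 25 µg/mL kanamycin versus none on LB agar overnight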
# conditions: 37 °C
assay endpoint: self-splicing fitness (ln)
Give a plain numeric answer without units written out.

// query Tell me the measured self-splicing fitness (ln) of UUUCAGCAAUAUUACGUUCA , please.
// result -0.407

// query Likewise for GGGUAGCAAUAUUACGGAUC ?
// result 0.637

// query Likewise for AGGUAGCAAUAUUACGAUGG ?
// result -2.57

// query Likewise for GUCCAGCAAUAUUACGGCGC ?
// result 0.208
